From: the supplement of paper PMC9170038

Exercise: state measured apparent KD of MS2 coat protein for each of the sequences provided.
system: MS2 coat protein; assay: apparent KD of MS2 coat protein; higher = weaker reporter binding; settings: Eterna round: R107; input ligand: tryptophan 2.4 mM
One number for each entry, in nM.

Recorded results for 2 sequences are shown here.
| Sequence Chain | Data Value |
| --- | --- |
| GGCACCAGGAGAAGGAGCGUGAAGACAUGAGGAUCACCCAUGUAGAGGCCCGUACUGGGUUCGCAGGUAGGUCGCUCCUGGUGCC [#1 Same State - Arginine B Attempt #13 (HarryS)] | 29.9 |
| UAUACAUGGGAUACCAUGGAUCCGAGUGAUACCAGCUAUCCGAAUAGCCCUUGGCAGCACAGUACAUGAGGAUCACCCAUGUAUA [Theo A SS t5] | 18.6 |

Entry UGGUAGCCACACUUCAAACAUCGACAAGAUACCAGUUAAUCAACGAACCCUUGGCAGCUUCGUACAUGAGGAUCACCCAUGUGGA [theeternabot_exclusion_MS2_Theo_A_6] : reported apparent KD of MS2 coat protein = ? 19.5
